Listing: viability at 1 µg/mL of selected compounds
System: HepG2
Experiment: Induction of apoptosis in human HepG2 cells assessed as viable cells at 1 ug/ml after 24 hrs by Annexin V/propidium iodide staining based flow cytometry (reference value: 83.13%)
Type: functional
Conditions: HepG2, 24 h, read-out: Activity
The reply should be a number in %, with the unit left off.

Please review the entries below; each comes with its answer.
Recorded result, CC(C)c1ccc2c(c1)CC[C@H]1[C@](C)(C/N=C/c3ncc[nH]3)CCC[C@]21C , viability at 1 µg/mL: 38.5

Recorded result, CC(C)c1ccc2c(c1)CC[C@H]1[C@](C)(C/N=C/c3c[nH]cn3)CCC[C@]21C , viability at 1 µg/mL: 32.9

Recorded result, COc1cccc2c1C(=O)c1c(O)c3c(c(O)c1C2=O)C[C@@](O)(C(=O)CO)C[C@@H]3O[C@H]1C[C@H](N)[C@H](O)[C@H](C)O1 , viability at 1 µg/mL: 39.9

Here's the next entry for you.
Recorded result, CC(C)c1ccc2c(c1)CC[C@H]1[C@](C)(CN)CCC[C@]21C , viability at 1 µg/mL: 32
